Origin of measurements: ChEMBL document CHEMBL1140548

Test system: Bacillus subtilis
Assay Text: Antimicrobial activity against Bacillus subtilis ATCC 6633
Type: functional
Reported Metric: MIC

Some compounds with recorded MIC:
* Cn1cnc([N+](=O)[O-])c1/C=C1\Oc2ccc([N+](=O)[O-])cc2C1=O | > 100 µg/mL
* COc1cccc2c1O/C(=C\c1ncc([N+](=O)[O-])n1C)C2=O | 0.78 µg/mL
* COc1cccc2c1O/C(=C\c1c([N+](=O)[O-])ncn1C)C2=O | > 100 µg/mL
* COc1ccc2c(c1)C(=O)/C(=C/c1ncc([N+](=O)[O-])n1C)O2 | 0.78 µg/mL
* Cc1cccc2c1O/C(=C\c1c([N+](=O)[O-])ncn1C)C2=O | > 100 µg/mL

The recorded MIC for entry `Cn1c([N+](=O)[O-])cnc1/C=C1\Oc2ccc([N+](=O)[O-])cc2C1=O` equals 12.5 µg/mL

Entry under test: `Cn1cnc([N+](=O)[O-])c1/C=C1\Oc2ccccc2C1=O` . Its MIC was > 100 µg/mL

Entry `Cc1ccc2c(c1)C(=O)/C(=C/c1c([N+](=O)[O-])ncn1C)O2` — recorded MIC = > 100 µg/mL

GET /value?item= `COc1ccc2c(c1)C(=O)/C(=C/c1c([N+](=O)[O-])ncn1C)O2` &field=MIC returns > 100 µg/mL

// MIC lookup, compound = `Cn1cnc([N+](=O)[O-])c1/C=C1\Oc2c(Cl)cccc2C1=O` , result: > 100 µg/mL

====

System: Staphylococcus epidermidis
Assay Text: Antimicrobial activity against Staphylococcus epidermidis ATCC 12228
Format: functional
Listing of recorded MIC by entry.
Only the number, expressed in µg/mL, is required.

* COc1ccc2c(c1)C(=O)/C(=C/c1ncc([N+](=O)[O-])n1C)O2 | 3.12
* Cc1cccc2c1O/C(=C\c1ncc([N+](=O)[O-])n1C)C2=O | 1.56
* Cn1c([N+](=O)[O-])cnc1/C=C1\Oc2ccc([N+](=O)[O-])cc2C1=O | 6.25
* Cn1c([N+](=O)[O-])cnc1/C=C1\Oc2ccc(Cl)cc2C1=O | 3.12

Input `COc1ccc2c(c1)O/C(=C\c1ncc([N+](=O)[O-])n1C)C2=O` . Output MIC: 1.56

Per the records, this compound ( `COc1ccc2c(c1OC)O/C(=C\c1ncc([N+](=O)[O-])n1C)C2=O` ) has MIC equal to 0.39

Briefly, MIC measured for `COc1cccc2c1O/C(=C\c1ncc([N+](=O)[O-])n1C)C2=O` : 0.78

Form: compound = `Cn1c([N+](=O)[O-])cnc1/C=C1\Oc2c(Cl)cccc2C1=O` ; MIC = 3.12

Per the record, `CC1(C)S[C@@H]2[C@H](NC(=O)[C@H](N)c3ccc(O)cc3)C(=O)N2[C@H]1C(=O)O` has MIC of 0.195

GET /value?item= `Cc1ccc2c(c1)O/C(=C\c1ncc([N+](=O)[O-])n1C)C2=O` &field=MIC returns 1.56

Reported MIC for `Cc1ccc2c(c1)C(=O)/C(=C/c1ncc([N+](=O)[O-])n1C)O2` was 3.12

GET /value?item= `Cn1c([N+](=O)[O-])cnc1/C=C1\Oc2ccccc2C1=O` &field=MIC returns 3.12

response.value for `Cn1c([N+](=O)[O-])cnc1C=C1C(=O)c2ccccc2C1=O` (field: MIC) = 50
